system: BDF1 mice, B16 melanoma ip, median survival T/C; test: NCI In Vivo Anticancer Drug Screen. Data for tumor model B16 Melanoma (intraperitoneal) in B6D2F1 (BDF1) mice; settings: endpoint: median survival time; dose: 3.0 mg/kg/injection; schedule: Q01DX009 (ip); vehicle: Klucel (hydroxypropylcellulose) (HPC)
Inconclusive results and toxic doses are left out. The calls were made as follows: active = survival T/C of 150% or more; inactive = T/C below 125% in these data.
Pick one and only one: label 1 = active, label 0 = inactive

Qu. Which outcome was entered for the compound CC1CCC[N-]C1.CC1CCC[N-]C1.CC1CCC[N-]C1.CC1CCC[N-]C1.[Cl][Rh][Cl] (stereo unspecified) in this test?
Ans. label 0

Qu. What do you get for COc1c(Br)c2c(c(OC)c1OC)-c1ccc(OC)c(=O)cc1C(NC(C)=O)CC2 (stereo unspecified) ?
Ans. label 0

Qu. What do you get for CC(=O)OCC1OC(OC(C)=O)C(NC(=O)N(CCCl)N=O)C(OC(C)=O)C1OC(C)=O (stereo unspecified) ?
Ans. label 1

Qu. What do you get for COc1c(Cl)c2c(c(OC)c1OC)-c1ccc(OC)c(=O)cc1C(NC(C)=O)CC2 (stereo unspecified) ?
Ans. label 0

Qu. What do you get for Cc1c(CCl)c(C)c(CCl)c(C)c1CCl ?
Ans. label 0

Qu. What do you get for CC/C(C)=C1\OC(=O)C(C)C(O)C(Cc2cccnc2)NC(=O)C(NC(=O)c2ncccc2O)C(C)OC1=O (stereo unspecified) ?
Ans. label 0
